Let's look at some compounds and their measured TGI.
Test system: ACHN renal
Assay: NCI tumour cell line growth inhibition, 48 h
Where a SMILES comes first, the peptide text is derived from it. [ ]: non-standard residue; d: D form. The star is where a group is joined. ξ: configuration not given here. ξW = NC(Cc1c[nH]c2ccccc12)C(=O)O; X30 = O=C(O)[C@H]1CCC[C@H]1N*; ξF = NC(Cc1ccccc1)C(=O)O; Boc = CC(C)(C)OC(=O)*; ξK = NCCCCC(N)C(=O)O; ξT = CC(O)C(N)C(=O)O; tBu = CC(C)(C)*
value-type: TGI

* COc1cc(C2C(C(=O)OCc3ccccc3)=C(C)NC(C)=C2C(=O)OCc2ccccc2)cc(OC)c1OC | > 100 µM
* Cc1ccc2nc(CC(=O)c3ccc4ccccc4c3)c(=O)[nH]c2c1 | > 100 µM
* CCCCCCCCCCCCCC(=O)OC1C(CO)OC(=O)C1O (stereo not drawn) | > 100 µM
* CC(=O)OC1CC(C)c2c(Cl)ncnc21 (stereo not drawn) | > 100 µM
* O=C1C(Cl)=C(Nc2ccccn2)C(=O)c2ccccc21 | 9.93 µM
* NS(=O)(=O)c1ccc(N=Nc2nc3[nH]cnc(=S)c3[nH]2)cc1 | > 100 µM
* Cc1cn(CCCCOC(=O)NC(CCCNC(N)=O)C(=O)O)c(=O)[nH]c1=O (stereo not drawn) | > 100 µM
* CCCN(CCC)c1ccc(/C=N/NC(=O)c2cccnc2)cc1 | > 100 µM
* COC(=O)C1=C(OC(=O)/C(=C/c2c(F)cccc2F)c2ccccc2)C(C(=O)OC)[C@@]2(O)[C@@H](C(=O)OC)[C@H](C)C[C@@H]1[C@@H]2C(=O)OC (stereo partly drawn) | > 100 µM
* O=C(Nn1c(-c2ccccc2)nc2ccccc2c1=O)c1ccc(O)cc1 | > 100 µM
* Nc1nc(Sc2ccc([N+](=O)[O-])cn2)c2[nH]cnc2n1 | > 73.5 µM
* COC(=O)CCSC1=CC(=O)c2nc3ccccc3c3ccnc1c23 | 48.3 µM
* CCN(CC)CCNc1ccc2ncn3c4c(OC)ccc(=O)c4c(O)c1c23 | > 100 µM
* CC(=O)O[C@]12CCCCC1C1(O)C(O)CCCC[C@H]12 (stereo partly drawn) | > 100 µM
* CCN(CC)C(=O)N[C@@H](Cc1ccccc1)C(=O)NC | > 100 µM
* CO[C@]12CCC(=O)N1C=Cc1c2[nH]c2ccccc12 | > 100 µM
* NC(=O)OCC(COc1ccc(Cl)cc1)OC(=O)c1cc([N+](=O)[O-])cc([N+](=O)[O-])c1 (stereo not drawn) | > 100 µM
* O=C1C2C3CCC(C2C(=O)N1CO)C1C2C(=O)N(CO)C(=O)C2C31 (stereo not drawn) | > 63 µM
* Nc1ccc(-c2nc3ccccc3s2)cc1I | > 100 µM
* CC1OC(n2cc(I)c(=O)[nH]c2=O)C=CC1=O (stereo not drawn) | 31.5 µM
* O=c1c2ccccc2n2n1Cc1ccccc1C2 | > 100 µM
* O=C1CCCCCCCCCCC1CN(Cc1ccccc1)Cc1ccccc1 (stereo not drawn) | > 100 µM
* O=C1C(Cl)C(c2cccc(Br)c2)N1c1c(O)c(Cl)cc(Br)c1Cl (stereo not drawn) | 37.6 µM
* Cc1cccc2c1ccc1c3occ(C)c3c(=O)oc21 | > 100 µM
* OCCN1CCN(c2nc(Nc3ccc(-c4nc5ccccc5[nH]4)cc3)c3cn[nH]c3n2)CC1 | 3.16 µM
* CNc1ccc(C(=O)CC(O)CCC(C)C2OC(=O)CC(O)CC(=O)CC(O)CC(O)CC(O)CC(O)CC3(O)CC(O)C(C(=O)NCCc4ccccn4)C(CC(OC4OC(C)C(O)C(N)C4O)/C=C/C=C/C=C/C=C\C=C/C=C/C=C/C2C)O3)cc1 (stereo not drawn) | 1.53 µM
* N#CC(C#N)=Cc1ccc(Oc2ccccc2)cc1 | > 31.6 µM
* CC(C(=O)N1C(=O)N(C(=O)[C@H](C)C(O)c2ccccc2)[C@H](c2ccccc2)[C@H]1c1ccccc1)[C@@H](O)c1ccccc1 (stereo partly drawn) | > 100 µM
* CC(=O)[C@]1(C)[C@H](C)O[C@](C)(CO)[C@H]1O[Si](C)(C)c1ccccc1 | > 100 µM
* CCNC(=O)c1ccc2c(c1)nc(-c1ccc(Cl)cc1)n2-c1cc(C(C)(C)C)[nH]n1 | 13.2 µM
* CC(OC(C)(C)C)C(NC(=O)C(CCCCNC(=O)OC(C)(C)C)NC(=O)C(Cc1c[nH]c2ccccc12)NC(=O)C(N)Cc1ccccc1)C(=O)NC(Cc1ccccc1)C(=O)N[C@@H]1CCC[C@@H]1C(=O)O (stereo partly drawn) (H-[ξF][ξW][ξK](Boc)[ξT](tBu)[ξF]-X30) | > 100 µM
* CN1CCc2cc(O)c3cc2C1Cc1ccc(cc1)Oc1cc(ccc1O)CC1c2c(cc4c(c2O3)OCO4)CCN1C (stereo not drawn) | > 100 µM
* O=C(Nc1ccc(O)c(NS(=O)(=O)c2ccc(F)cc2)c1)c1ccc(-c2ccccc2)cc1 | 25.7 µM

* * *

Let's look at some compounds and their measured TGI.
Tested on: LXFL 529 NSCLC
Test: NCI tumour cell line growth inhibition, 48 h
value-type: TGI (µM)

- C[CH2][Sn]([Cl])([CH2]C)[CH2]C: 3.27
- Cc1n(-c2ccccc2)c2c([n+]1Cc1ccc([N+](=O)[O-])cc1)C(=O)c1ccccc1C2=O: 2.76
- CN1CCN(CCCN2c3ccccc3Sc3ccc(C(F)(F)F)cc32)CC1: 23
- CCCCCCCCCCNC(=S)OCCCC: 55.6
- CCC[CH2][Ge]([CH2]CCC)([CH2]CCC)[O]C(=O)C(OC(C)=O)c1ccccc1 (stereo not given): 21

* * *

Let's look at some compounds and their measured TGI.
System: 786-0 renal
Experiment: NCI tumour cell line growth inhibition, 48 h
value-type: TGI

* COC(=O)C(C(=O)C(=O)Nc1ccc([N+](=O)[O-])cc1)c1nc2cc(C)c(C)cc2[nH]c1=O (configuration not stated) | > 100 µM
* Cc1ccc(-c2n[nH]c(=O)n2N2C(=O)C=CC2=O)cc1 | > 100 µM
* Cc1cccc2c1NC(=O)C2(c1ccc(O)cc1)c1ccc(O)cc1 | 40.1 µM
* CCC[CH2][Ge]([CH2]CCC)([CH2]CCC)[O]C(=O)C(OC(C)=O)c1ccccc1 (configuration not stated) | 22.8 µM
* COCO[C@@H]1CC2C=Nc3cc(OCc4ccccc4)c(OC)cc3C(=O)N2C1 (some centres not stated) | 30.9 µM
* [O]=[W](=[O])([OH])[OH] | > 100 µM
* Cc1ccc(N=Nc2c(C)nn(C(=O)CC(=O)Nc3ccc(Cl)cc3)c2C)cc1C | > 100 µM

* * *

Test system: HCC-2998 colon
Test: NCI tumour cell line growth inhibition, 48 h
Let's look at some molecules and their measured GI50.
value-type: GI50

* COCO[C@@H]1CC2C=Nc3cc(OCc4ccccc4)c(OC)cc3C(=O)N2C1 (some centres undefined) | 0.519 µM
* Cc1cccc2c1ccc1c3occ(C)c3c(=O)oc21 | > 100 µM
* O=C(Nc1cccc(-n2cc(-c3ccncc3)c(-c3ccc(O)c(Cl)c3)n2)c1)c1ccc(N2CCOCC2)c(C(F)(F)F)c1 | 3.44 µM
* c1ccc(C2=NN[C@H](c3cn(-c4ccccc4)nc3-c3ccccc3)C2)cc1 | > 100 µM

* * *

System: IGROV1 ovarian
Assay: NCI tumour cell line growth inhibition, 48 h
value-type: TGI

- CNC(=O)OCc1cc2ccncc2c2c1[nH]c1ccccc12: > 100 µM
- CN1CCc2cc(O)c3cc2C1Cc1ccc(cc1)Oc1cc(ccc1O)CC1c2c(cc4c(c2O3)OCO4)CCN1C (stereo not given): > 100 µM
- N#Cc1c(-c2ccccc2)c(C#N)c(=S)n(C2OCC(O)C(O)C2O)c1N (stereo not given): > 100 µM
- CN/N=C(/CC(=O)c1sc(-n2nc(-c3ccccc3)cc2-c2ccccc2)nc1C)C(=O)Nc1ccc(Cl)c(Cl)c1: > 100 µM
- O=c1cc(-c2ccccc2)nc2cc(-c3ccco3)[nH]n12: 60 µM

* * *

Let's look at some molecules and their measured TGI.
Tested on: NCI-H23 lung
Experiment: NCI tumour cell line growth inhibition, 48 h
value-type: TGI

• N#Cc1c(-c2ccccc2)c(C#N)c(=S)n(C2OCC(O)C(O)C2O)c1N (stereo unspecified) = > 100 µM
• COC(=O)c1cc(NC(=O)CN(CCN(CC(=O)O)CC(=O)Nc2ccc(O)c(C(=O)OC)c2)CC(=O)O)ccc1O = > 100 µM
• CCN(CC)CCOCC1CCCN2CCCCC12 (stereo unspecified) = > 100 µM
• COc1cc2c(cc1OC)C1(c3ccccc3)ON=C(c3ccccc3)N1CS2 (stereo unspecified) = > 100 µM
• Nc1ccc(-c2nc3ccccc3s2)cc1I = > 100 µM
• COc1ccc(OC)c(-c2cc(C(=O)O)c3cc4ccccc4cc3n2)c1 = > 100 µM
• C[CH2][Sn]([Cl])([CH2]C)[CH2]C = 4.84 µM
• COc1ccc(N2C(=O)C3c4[nH]c5cc(Cl)ccc5c4C4CCC(C(C)(C)C)CC4C3C2=O)cc1 (stereo unspecified) = > 100 µM
• CN(C)C=Nc1c(Br)cc(Br)c2nonc12 = > 100 µM
• Cc1ccc(C(=O)c2[nH]c(Nc3ccc(Cl)cc3)c(C(=S)Nc3ccccc3)c2N)cc1 = 9.1 µM
• CCCCC1=CC1(C#N)[N+](=O)[O-] (stereo unspecified) = > 100 µM
